experimentalTarget: T1, mf TFRC ecto-mmh (REGN2054), monomeric monkey (cyno) Tfrc ectodomain with C-terminal myc-myc-hexahistidine tag (monkey (cyno), Macaca fascicularis, UniProt H9EXL1 89-760)
T1 construct: range 89-760; also called mfTfR-mmh; mfTFR-mmh
T1 sequence (chain, as listed by the source): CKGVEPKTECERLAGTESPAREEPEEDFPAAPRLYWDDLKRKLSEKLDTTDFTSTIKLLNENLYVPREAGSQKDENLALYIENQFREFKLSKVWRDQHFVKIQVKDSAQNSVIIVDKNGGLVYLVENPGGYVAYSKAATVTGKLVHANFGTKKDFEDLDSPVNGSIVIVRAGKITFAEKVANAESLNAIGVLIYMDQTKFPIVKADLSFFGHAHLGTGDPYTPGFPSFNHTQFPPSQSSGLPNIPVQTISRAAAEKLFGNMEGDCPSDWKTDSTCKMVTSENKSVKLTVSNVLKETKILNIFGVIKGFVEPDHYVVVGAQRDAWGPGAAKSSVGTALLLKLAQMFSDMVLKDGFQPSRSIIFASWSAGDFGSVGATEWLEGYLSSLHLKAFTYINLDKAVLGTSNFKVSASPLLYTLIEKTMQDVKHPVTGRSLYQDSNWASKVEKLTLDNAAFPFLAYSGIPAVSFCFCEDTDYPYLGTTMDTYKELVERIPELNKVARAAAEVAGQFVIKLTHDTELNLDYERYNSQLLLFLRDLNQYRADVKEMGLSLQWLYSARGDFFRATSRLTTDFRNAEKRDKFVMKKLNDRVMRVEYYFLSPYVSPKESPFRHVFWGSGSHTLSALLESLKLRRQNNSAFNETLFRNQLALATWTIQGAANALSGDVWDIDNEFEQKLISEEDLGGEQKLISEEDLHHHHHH
testDescription: SPR (Biacore), mAb captured on anti-human Fc, 100 nM mfTfR-mmh, 25 C
quantity: t½

1) 69263 (antibody, human IgG1, kappa, V domains shown, Tested as bivalent human IgG1 from CHO primary supernatant) VH: EVQLVESGGGLVQPGRSLRLSCAVSGFTFDDYAMHWVRQAPGKGLEWVSGISWNSGTRGYADSVKGRFTISRDNAKNSLYLQMNSLRGEDTALYYCVKDITISPNYYGMDVWGQGTTVTVSS VL: DIQMTQSPSSLSASVGDRVTITCRASQDISHYSAWYQQKPGKLPNLLIYAASTLQSGVPSRFSGSGSGTDFSLTTSSLQPEDVATYYCQKYNSVPLTFGGGTKVEIKR : 3.1 min
2) 12795B (antibody, human IgG1, kappa, V domains shown, Tested as bivalent human IgG1 from CHO primary supernatant) VH: EVQLVESGGGLVQPGGSLRLSCATSGFTFTSYDMKWVRQAPGLGLEWVSAISGSGGNTYYADSVKGRFTISRDNSRNTLYLQMNSLRAEDTAVYYCTRSHDFGAFDYFDYWGQGTLVTVSS VL: DIQMTQSPSSLSASVGDRVTITCRASQGIRDHFGWYQQKPGKAPKRLIYAASSLHSGVPSRFSGSGSGTEFTLTISSLQPEDFATYYCLQYDTYPLTFGGGTKVEIKR : 162 min
3) 12801B (antibody, human IgG1, kappa, V domains shown, Tested as bivalent human IgG1 from CHO primary supernatant) VH: EVQLLESGGALVQPGGSLRLSCAASGFTFTSYAMHWVRQAPGKGLEWVSSIRGSGGGTYSADSVKGRFTISRDNSRDTLYLQMNSVRAEDTAVYYCARSHDYGAFDFFDYWGQGTLVTVSS VL: DIQMTQSPSSLSASVGDRVTITCRASQGIRTDLGWYQQKPGKAPKRLIYAASSLQSGVPSRFSGSGSGTEFTLTISSLRPEDFATFYCLQYNSYPLTFGGGTKVEIKR : 17.7 min
4) 69348 (antibody, human IgG1, kappa, V domains shown, Tested as bivalent human IgG1 from CHO primary supernatant) VH: QVQLVESGGGVVQPGRSLRLSCAASGFTFTTYGMHWVRQAPGKGLEWVAVIWYDGSNKYYGDSVKGRFTISRDNSKNTLYLQMNSLRVDDTAVYYCTRTHGYTRSSDGFDYWGQGTLVTVSS VL: DIQMTQSPSSLSASVGDRVTITCRASQSIRNVLGWFQQKPGKAPQRLIYAASSLQSGVPSRFSGSGSGTEFTLTISSLQPEDFATYYCLQHNFYPLTFGGGTKVEIKR : 25.1 min
